Source of measurements: paper PMC10924156

test: Small-animal PET imaging; conditions: BALB/c nude, mouse, tumor (HT-1080-FAP plus HT-1080-SSTR2 xenograft), iv, 7.4 MBq, total radioactivity, tumor uptake (PET), 1 h after injection, i.v. approx 7.4 MBq, 3 mice/group
Positions of bridges follow the written chain, without caps; N, C: chain ends. Non-standard residues stand in square brackets, D forms with d. Residues, ends and D or L forms follow the SMILES beside them. *: point of attachment. DOTA = O=C(O)CN1CCN(CC(=O)O)CCN(CC(=O)*)CCN(CC(=O)O)CC1; dPhe(4-NHCONH2) = NC(=O)Nc1ccc(C[C@@H](N)C(=O)O)cc1; Phe(4-Cl) = N[C@@H](Cc1ccc(Cl)cc1)C(=O)O
result_type: tissue uptake at 1 h (%ID/g)

[
  {
    "compound": "C[C@@H](O)[C@@H]1NC(=O)[C@H](CCCCN)NC(=O)[C@@H](Cc2ccc(NC(N)=O)cc2)NC(=O)[C@H](Cc2ccc(O)cc2)NC(=O)[C@H](NC(=O)[C@H](Cc2ccc(Cl)cc2)NC(=O)CN2CCN(CC(=O)O)CCN(CC(=O)O)CCN(CC(=O)O)CC2)CSSC[C@@H](C(=O)N[C@H](Cc2ccc(O)cc2)C(N)=O)NC1=O [^68Ga-DOTA-LM3, metal not drawn, reference compound] ({DOTA}-[Phe(4-Cl)][dC]Y[dPhe(4-NHCONH2)]KTC[dY]-NH2; disulfide 2-7)",
    "output_unit": "%ID/g",
    "measured_result": 5.93
  }
]
